Reported values of Percent Effect for individual entries
Test system: Plasmodium falciparum
Assay: Plasmodium falciparum sporozoite viability assay; also: in the data most compounds retested in dose-response had high values
Format: functional, organism-based
Screen size: about 34,000 compounds; about 290 (0.85%) showed an effect of 50% or more. The sample as a whole holds a higher share of strong results than the screen did.
Response body: numeric value in %, unit text excluded.

Which Percent Effect value belongs to CCOc1cc([C@H]2N[C@@H](c3nc(C)cs3)Cc3ccsc32)ccc1OC ?
5.89

Which Percent Effect value belongs to Cc1ccc2c(c1)C(=O)NCC1(CCN(C(=O)c3cc(C)no3)CC1)O2 ?
21.42

Which Percent Effect value belongs to CC(=O)N1CCCC1c1ccc(C(=O)N2CCOCC2)s1 (stereo not given) ?
9.227

Which Percent Effect value belongs to O=C(O)C(F)(F)F.O=C(O)C(F)(F)F.c1ccc(CN2CCC3(CC2)CCN(c2ccccn2)C3)nc1 ?
11.38
